- Assay notes: In vitro stability testing in 2% hog kidney homogenate
- Type: in vitro ADME
- Test parameters: pig, kidney or brush border membranes, pH 7
- Protocol: Like most small linear polypeptides, motilin is believed to be metabolized by the brush border cells of the kidney. […] The average ratio for the peptide substrate was expressed as a percentage and plotted versus time. […] The rate of disappearance of the substrate was calculated using the Enzfitter program (Biosoft). Relative half-lives were determined from the relationship: […]
Positions of bridges follow the written chain, without caps; N, C: chain ends. Non-standard residues stand in square brackets, D forms with d. Residues, ends and D or L forms follow the SMILES beside them. *: point of attachment. X1 = C[N+](C)(C)[C@@H](Cc1ccccc1)C(=O)*; NMeF = CN[C@@H](Cc1ccccc1)C(=O)O
Quantity kind: half-life at 0.5 mg/ml (h)
Field format: number, assumed h, no unit text.

Note to self: half-life at 0.5 mg/ml recorded for CC[C@H](C)[C@H](NC(=O)[C@@H]1CCCN1C(=O)[C@@H](NC(=O)[C@H](Cc1ccccc1)[N+](C)(C)C)C(C)C)C(=O)N[C@@H](Cc1ccccc1)C(=O)N[C@H](C(=O)N[C@@H](Cc1ccc(O)cc1)C(=O)NCC(=O)N[C@@H](CCC(=O)O)C(=O)N[C@H]1CCC(=O)NCCCC[C@@H](C(=O)N[C@@H](CCCCN)C(N)=O)NC(=O)[C@H](CC(C)C)NC(=O)[C@H](CCCNC(=N)N)NC(=O)[C@H](C)NC1=O)[C@@H](C)O [SEQ ID NO:21] (X1-VPIFTYGEEARLKK-NH2; lactam 9-13) was 4.45

Memo: CC[C@H](C)[C@H](NC(=O)[C@@H]1CCCN1C(=O)[C@@H](NC(=O)[C@H](Cc1ccccc1)[N+](C)(C)C)C(C)C)C(=O)N[C@@H](Cc1ccccc1)C(=O)N[C@H](C(=O)N[C@@H](Cc1ccc(O)cc1)C(=O)NCC(=O)N[C@@H](CCC(=O)O)C(=O)N[C@H]1CC(=O)NCCCC[C@@H](C(=O)N[C@@H](CCCCN)C(N)=O)NC(=O)[C@H](CC(C)C)NC(=O)[C@@H](CCCNC(=N)N)NC(=O)[C@H](C)NC1=O)[C@@H](C)O [SEQ ID NO:19] (X1-VPIFTYGEDA[dR]LKK-NH2; lactam 9-13) , reported half-life at 0.5 mg/ml: 1.42

Short answer for CC[C@H](C)[C@H](NC(=O)[C@@H]1CCCN1C(=O)[C@@H](NC(=O)[C@H](Cc1ccccc1)[N+](C)(C)C)C(C)C)C(=O)N[C@@H](Cc1ccccc1)C(=O)N[C@H](C(=O)N[C@@H](Cc1ccc(O)cc1)C(=O)NCC(=O)N[C@@H](CCC(=O)O)C(=O)N[C@H]1CC(=O)NCCCC[C@@H](C(=O)N[C@@H](CCCCN)C(N)=O)NC(=O)[C@H](CC(C)C)NC(=O)[C@H](CCCNC(=N)N)NC(=O)[C@H](C)NC1=O)[C@@H](C)O [SEQ ID NO:18] (X1-VPIFTYGEDARLKK-NH2; lactam 9-13) : half-life at 0.5 mg/ml was 6.88

Entry CC[C@H](C)[C@H](NC(=O)[C@@H]1CCCN1C(=O)[C@@H](NC(=O)[C@H](Cc1ccccc1)NC)C(C)C)C(=O)N[C@@H](Cc1ccccc1)C(=O)N[C@H](C(=O)N[C@@H](Cc1ccc(O)cc1)C(=O)NCC(=O)N[C@@H](CCC(=O)O)C(=O)N[C@H]1CC(=O)NCCCC[C@@H](C(N)=O)NC(=O)[C@H](CC(C)C)NC(=O)[C@H](CCCNC(=N)N)NC(=O)[C@H](C)NC1=O)[C@@H](C)O [SEQ ID NO:17] (H-[NMeF]VPIFTYGEDARLK-NH2; lactam 10-14) ; half-life at 0.5 mg/ml = 0.517
